From: patent US5744320A

Below, each of the molecules is paired with its reported Percent (%) Residual Firefly Luciferase Activity value.
TARGET OF ASSAY: Firefly Luciferase (Photinus pyralis, UniProt P08659, K549A/L550V/N119G/N50D/S548I)
Construct: host or cells: Chinese hamster ovary (CHO) cells, transient transfection, cleared lysate
Sequence (P08659 whole entry N50D/N119G/S548I/K549A/L550V): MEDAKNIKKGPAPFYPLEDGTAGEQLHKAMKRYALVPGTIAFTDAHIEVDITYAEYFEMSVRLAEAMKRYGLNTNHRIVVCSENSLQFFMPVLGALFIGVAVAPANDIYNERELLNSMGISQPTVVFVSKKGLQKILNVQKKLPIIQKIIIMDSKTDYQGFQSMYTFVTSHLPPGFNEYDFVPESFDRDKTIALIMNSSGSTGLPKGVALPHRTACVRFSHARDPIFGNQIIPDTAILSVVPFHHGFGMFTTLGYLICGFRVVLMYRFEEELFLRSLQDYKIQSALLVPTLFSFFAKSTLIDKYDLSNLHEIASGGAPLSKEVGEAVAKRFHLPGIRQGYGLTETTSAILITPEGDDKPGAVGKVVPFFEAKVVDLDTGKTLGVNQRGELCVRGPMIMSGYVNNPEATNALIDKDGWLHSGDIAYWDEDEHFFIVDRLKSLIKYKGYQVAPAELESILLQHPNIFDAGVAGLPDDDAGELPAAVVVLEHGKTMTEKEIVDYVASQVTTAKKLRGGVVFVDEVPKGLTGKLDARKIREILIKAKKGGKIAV
PROCEDURE SUMMARY: biochemical
Type: biochemical
MEASUREMENT SETUP: assay concentration 400 mM
PARAMETER MEASURED: Percent (%) Residual Firefly Luciferase Activity

{"MOLECULE": "O=[N+]([O-])[O-].[Na+]", "REPORTED MEASUREMENT": 2.1}
{"MOLECULE": "[Cl-].[Na+]", "REPORTED MEASUREMENT": 8.3}
{"MOLECULE": "O=S(=O)([O-])[O-].[Na+].[Na+] [Na2 SO4, sodium sulfate]", "REPORTED MEASUREMENT": 10}
{"MOLECULE": "[I-].[Na+] [NaI, sodium iodide]", "REPORTED MEASUREMENT": 0.078}
